Test system: Bacillus subtilis DB104 (SP-AmyQ fusion secretion)
Experiment: AmyQ secretion efficiency, weighted average sort bin (1 = best secretion, 10 = worst) (bin number (weighted average, 1-10)); higher = lower secretion efficiency
quantity-kind: AmyQ secretion efficiency
Write no unit; give the number alone.

MKKWMITIAMLILAGIALFVFISPTKSHKT 7.06
MKVPKTMLLSTAAGLLLSLTATSVSWHYV 4.99
MKKVMLATALFLPAGANAADL 7.34
MFNRLFRVCFLAALIMAFTLPNSVYKQKP 6.24
MKKWIYVVLVLSIAGIGGFSVHSASS 5.94

Returns the measured AmyQ secretion efficiency for the input sequence. Input: MKKSQYFIVFICFFVLFSVHPIARAAADS
3.28

###

The following sequences are listed with their measured AmyQ secretion efficiency values.
System: Bacillus subtilis DB104 (SP-AmyQ fusion secretion)
Assay: AmyQ secretion efficiency, weighted average sort bin (1 = best secretion, 10 = worst) (bin number (weighted average, 1-10)); higher = lower secretion efficiency
Response field accepts a number only; no unit should be typed.

MKGWMRTTLVVLFTIVTFGLVSPPAALMADKP 7.14
MRKKRVITCVMAASPAGYATAKED 7.65
MPYLKRVLLLLVTGLFMSLFAVTATCSAQTG 1.27
MFRMIVRMTLPLLIVCLAFSSFSASARAASE 1.61
MRPVFPLILSAVLFLSCFFGARQTETSASKR 5.36

// returns reported AmyQ secretion efficiency for input MGLGKKLSVAVAASFMSLSISLPGVQTAEG
3.78

Quick check: AmyQ secretion efficiency of MKKLTLAFLVFLSVVLVTTVFLVKQQESVAQAKQL ?
3.11

Entry MKKGIIRFLLVSFVLFFALSTGITGFQAAPA : reported AmyQ secretion efficiency = ?
5.1

Entry MKKLLSAASLAFFAMSGSAQAAAY has what AmyQ secretion efficiency?
2.96

# input sequence: MKLWMRKTLVVLFTIVTFGLVSPPAALMAATP ; wanted: its AmyQ secretion efficiency
2.71

Look up AmyQ secretion efficiency: MRNLTKTSLLLAGLCTAAQMVFVTHWSAEES
8.27

###

System: Bacillus subtilis DB104 (SP-AmyQ fusion secretion)
Assay: AmyQ secretion efficiency, weighted average sort bin (1 = best secretion, 10 = worst) (bin number (weighted average, 1-10)); higher = lower secretion efficiency
We begin with a simple list: items and their reported AmyQ secretion efficiency.
The response must contain the number and no unit.

Use the examples below as a reference point.
MKRKLLSSLAISALSLGLLVRKRTASFAAES 6.75
MKQFAITLSVLCALILLVPTLLVIPFQHNKAAGASV 4.37
MKKTIMSFVAVAALSTTAFTGAHASAKEI 2.34
MKQGKFSVKKKRKRMLTLVVAPKEKAEAASS 5.83

Please look up its AmyQ secretion efficiency: MLKRTSFVSSLFISSAVLLSILLPSGQVHAQSA
1.69

###

Test system: Bacillus subtilis DB104 (SP-AmyQ fusion secretion)
Test: AmyQ secretion efficiency, weighted average sort bin (1 = best secretion, 10 = worst) (bin number (weighted average, 1-10)); higher = lower secretion efficiency
Overview of reported AmyQ secretion efficiency across a group of sequences:
Give a plain numeric answer without units written out.

Before answering, review these 2 worked examples.
MLCVMMLLFSAIATFVVVAQAKDQ 6.49
MKTKTLKRFSAILTLSIFAPNETFAQTA 3.24

Item MKKRLIAPMLLSAASLAFFAALIFILLLTFMSGSAQAAAY has what recorded AmyQ secretion efficiency?
3.37

State the recorded AmyQ secretion efficiency for this entry: MKRFLIGAGVAAVILRKKKKAKHQTHSQEM
6.98

# get_value(readout='AmyQ secretion efficiency', item= MKLKKRVSMYTQALTMCGGLFVTPAKAVKT )
5.95

###

Test system: Bacillus subtilis DB104 (SP-AmyQ fusion secretion)
Assay: AmyQ secretion efficiency, weighted average sort bin (1 = best secretion, 10 = worst) (bin number (weighted average, 1-10)); higher = lower secretion efficiency
Tick true if AmyQ secretion efficiency is 4 or greater. Tick false if AmyQ secretion efficiency is less than 4.

Examples from the recorded data:
MGLGKKLSVAVAASFMSLSISLPGWQAAEG true
MAIIIAIIAAVIVIAALITFNVVNASPG true
MGLGKKLSVAVAASFMSLSISLPGVQWAEG false
MRKNRILALFVLSLGLLSFMVTPVSTASK true
MKKRLIAPMLLSAASLAFFAMSGSCQAAAY false
MNILLILLSSALSFGMLISAVPALAAGT false
MKLAKRVSALTPSTTLAITAKNKEL true
MKKRITYSLLALLAVVAFAFTDSSKAKAASA false

Would you kindly look at the next entry?
Determine whether this sequence has AmyQ secretion efficiency no lower than 4: MKKAFLVFLSVVLVTTVFLVKQQESVAQGKQL
false

###

Tested on: Bacillus subtilis DB104 (SP-AmyQ fusion secretion)
Assay: AmyQ secretion efficiency, weighted average sort bin (1 = best secretion, 10 = worst) (bin number (weighted average, 1-10)); higher = lower secretion efficiency
Binary classification by AmyQ secretion efficiency, with 3 as an inclusive lower bound for Y; all other cases are N.

Recorded results for 2 sequences are shown here.
MLTKRGRYYYRTLLGLIAWFPGAAQAEEK Y
MKKGIIRFLLVSFVLFFALSTGITGVQVAPA Y

Hello, I need to know if MPYLKRVLLLLVTGLFMSLFAVTATASVQTG has measured AmyQ secretion efficiency not below 3. Thanks!
N

Quick check: does MKKWMITIAMLILAGIALFVFISPWKSHKT have AmyQ secretion efficiency greater than or equal to 3?
Y

Item MTKRITYSLLALLAVVAFAFTDSSKAKAAEA with AmyQ secretion efficiency of 3 or above?
N

###

System: Bacillus subtilis DB104 (SP-AmyQ fusion secretion)
Assay: AmyQ secretion efficiency, weighted average sort bin (1 = best secretion, 10 = worst) (bin number (weighted average, 1-10)); higher = lower secretion efficiency
Let's look at some sequences and their measured AmyQ secretion efficiency.
Answer with a bare number; do not write a unit.

Below, each entry is followed by its recorded AmyQ secretion efficiency result.
MPYLKRVLLLLVTGLFMSLFAVTATPSAQTG 4.75
MRFTKNVVGFLSVLGLAAVFPLTAQAEKA 2.41
MKKRLIGFLVLVPALIMSGITLIENNKK 6.74
MMKKLFHSTLIVLLFFSFFGVRKKRRKIHAKKQ 6.23
MFNRLFRVCFLAALIMAFTLPNSVYGQKP 2.74
MPYLKRMINFNNVLLLLVTGLFMSLFAVTATASAQTG 1.05
MRKYTVIASILLSFLSVLSGGHHEVATSKAFPV 3.74
MLKKIALTLCPAIVGSLLFFTVAPASAHVS 3.73
MKRTWNVCLTALLSVLLVAPFHAEAKKP 4.3
MFMMSTNNFKRFIAAFLVLALMISLVPADVLAKST 2.59

Could you share what AmyQ secretion efficiency was measured for MHLIRAAGAVCLAVVLIAGCRITSIFFNEDQHQAEGENT , tested on Bacillus subtilis DB104 (SP-AmyQ fusion secretion)?
6.96

For Bacillus subtilis DB104 (SP-AmyQ fusion secretion), provide AmyQ secretion efficiency of MKKGIIRFLLVSFVLFFALLAFVVISFFSTGITGVQAAPA please.
2.07

Recall the recorded AmyQ secretion efficiency for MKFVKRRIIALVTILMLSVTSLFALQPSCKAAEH with Bacillus subtilis DB104 (SP-AmyQ fusion secretion) and state it.
2.68

Missing value: AmyQ secretion efficiency, Bacillus subtilis DB104 (SP-AmyQ fusion secretion), entry MKRIRIPMTLALGAALTIAPLSFASPEEN . Fill in?
8.17

Query for Bacillus subtilis DB104 (SP-AmyQ fusion secretion): what AmyQ secretion efficiency does the record show for MKMKSGMEQAVSVLLLLSRLPASLTSE ?
3.77

Request body: readout AmyQ secretion efficiency, system Bacillus subtilis DB104 (SP-AmyQ fusion secretion), query MTLWMTSTLLVVLFTIVTFGLVSPPAALMADKP . Return the value.
5.58

Could you share what AmyQ secretion efficiency was measured for MRSYIKVLTMCFLGLILFVPTMLADNS , tested on Bacillus subtilis DB104 (SP-AmyQ fusion secretion)?
3.1

# get_value(readout= AmyQ secretion efficiency, system= Bacillus subtilis DB104 (SP-AmyQ fusion secretion)) for MKKKQVMLALTAAAGLGLTALHSAPASVVAVAASAKAAPL
1.02

###

Tested on: Bacillus subtilis DB104 (SP-AmyQ fusion secretion)
Assay: AmyQ secretion efficiency, weighted average sort bin (1 = best secretion, 10 = worst) (bin number (weighted average, 1-10)); higher = lower secretion efficiency
Where AmyQ secretion efficiency equals or exceeds 7, the correct label is Y; where it does not, the label is N.

Examples with answers:
MKKWLIIAVSLAIAIVLFDDTDGEAKAAGM N
MKKMKKSGKRFLLALTIHVGEASAVIV N
MRGKSAVLLSLIMLIAGFLIISFSFQM Y
MTKLKMLSMLTVMIASLFIFSSQQLAVQY N
MKKRLIAPMLLSAASLAFFAMVAVIAQAAAY N

Hi, just wondering whether MKRKRLLSTLLIGIMLLTFAPSAFAKQD shows AmyQ secretion efficiency of 7 or higher.
N

Is AmyQ secretion efficiency for MLTFLIGAGVAAVILSGWFIADHQTHSQEM at or above 7?
N

Exam item: decide whether the reported AmyQ secretion efficiency for MKKRKRRNFKRFIAAFLVLALMISLVPADGLAKST is at least 7.
N

Check if AmyQ secretion efficiency >= 7 (inclusive). Item: MKKKRLFIFSAILTLSIFAPNETFAQTA
N

Assess whether reported AmyQ secretion efficiency for MKKKLAAGLTASAIVGTTLVGGGAEAATI sits at 7 or higher.
N

Where these numbers come from: the supplement of paper PMC9942255
